quantity: melting point (°C)
Write down the numeric answer in °C and omit the unit.

Here is how some molecules turned out for melting point.
• COC(=O)c1ccc(Cc2cc3cc(Cl)ccc3n2S(=O)(=O)N2CCCCC2)cc1 = 133
• NS(=O)(=O)c1ccc(-c2noc(-c3cnc4ccc(-c5ccc(C(F)(F)F)cc5)cn34)n2)s1 = 280
• COC(=O)NNC(=O)c1n[nH]c2cc(OC)c(OC)cc12 = 235

Here is the next item to consider.
Q. Given the molecule Cc1cc(SC2=C(O)CC(CCc3ccc(O)cc3)(CCc3ccc(O)cc3)OC2=O)c(C(C)(C)C)cc1OS(=O)(=O)N(C)C , what is its reported melting point?
A. 139

* * *

Quick reference for melting point among some molecules

- CCCCCCCCCCCCCCCC(=O)OCC(O)COC(=O)CCCCCCCCCCCCCCC: 71 to 73 °C
- CC(C)c1ccc2c(c1)[C@@H](NC(=O)c1ccc(F)cc1)[C@H](O)C(C)(C)O2 (relative stereo): 235 to 236 °C
- Cc1cc2c(cc1Cl)C(CC(=O)O)(c1ccccc1OC(C)C)C(=O)N2 (centres undefined): 148 to 150 °C
- CCCNC(=O)n1nc(Oc2c(Cl)cc(C(F)(F)F)cc2[N+](=O)[O-])cc1C: 111 to 113 °C
- N#Cc1c(C(F)(F)F)cc(-c2ccc(C(F)(F)F)cc2)[nH]c1=O: 197 °C

Q. Given the molecule CCC[C@H]1CN(c2c(F)cc3c(=O)c(C(=O)O)cn([C@@H]4C[C@@H]4F)c3c2OC)C[C@H]1N , what is its reported melting point?
A. 79 to 83 °C

Q. Given the molecule O=C(Nc1ccc(-n2nc(C(F)(F)F)cc2C(F)(F)F)cc1)c1ccc(F)cc1C(F)(F)F , what is its reported melting point?
A. 178 to 179 °C

Q. Given the molecule CCOC(=O)c1ccc2nc(C)n(Cc3ccccc3Cl)c2c1 , what is its reported melting point?
A. 126 to 127 °C

Q. Given the molecule FC(F)(F)Oc1ccc2cnn(SC(Cl)(Cl)Cl)c2c1 , what is its reported melting point?
A. 45 °C

* * *

Quick reference for melting point among some compounds

Here is how some compounds turned out for melting point.
* COc1nc2cccccc-2n1 | 94 °C
* COc1cccc(Nc2ccnc(Nc3cc(OC)c(OC)c(SC)c3)n2)c1 | 68 to 70 °C
* CN1CCN(c2cc(Cl)cc3c2c(=O)n(Cc2ccc(Cl)cc2)c(=O)n3Cc2ccccc2)CC1 | 92 to 97 °C

Q. Given the compound Nc1c(C(=O)O)cnn1-c1ccc(C(F)(F)F)cc1 , what is its reported melting point?
A. 169 to 171 °C

Q. Given the compound Cc1c(C)c2c(c(C)c1O)CCC(C)(CC(=O)N(C)C)O2 (stereo not given) , what is its reported melting point?
A. 142 °C

Q. Given the compound CNc1nc(C2C(=O)Nc3ccc(C(F)(F)F)cc32)c2cn(C3CCCC3)nc2n1 (stereo not given) , what is its reported melting point?
A. > 300 °C

Q. Given the compound N#Cc1snc(Cl)c1Cl , what is its reported melting point?
A. 84.5 to 85 °C

Q. Given the compound Cc1nc2cc3c(cc2o1)C1(CO3)C(=O)Nc2ccccc21 (stereo not given) , what is its reported melting point?
A. 242 to 244 °C

Q. Given the compound Cc1ccc2c(c1)Oc1ncc([N+](=O)[O-])cc1C(=O)N2C , what is its reported melting point?
A. 197 to 198 °C

Q. Given the compound O=c1nc(-c2ccccn2)sc2cc(Br)ccc12 , what is its reported melting point?
A. 231 to 232 °C
